- Target Entity: recombinant rat MMP9 (rat pro‐MMP9) (rat) (UniProt P50282)
Returns: string. Value is t if measured IC50 of inhibition of rat MMP9 activity (cleavage of 5-FAM/QXL 520 FRET peptide, 37°C) is below 20 nM, and f if it is greater than or equal to it.

INSERT INTO measurements (binder, assigned_label) VALUES
  ('WT‐HSA (wild‐type TIMP3 fused with human serum albumin) (protein) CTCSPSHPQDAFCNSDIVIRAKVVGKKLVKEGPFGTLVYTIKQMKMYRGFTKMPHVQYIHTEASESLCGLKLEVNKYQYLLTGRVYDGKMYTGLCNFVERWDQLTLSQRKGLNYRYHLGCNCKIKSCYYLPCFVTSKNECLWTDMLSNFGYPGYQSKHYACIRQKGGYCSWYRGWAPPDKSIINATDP', 'f'),
  ('N‐HSA (N‐TIMP3 fused with human serum albumin) (protein) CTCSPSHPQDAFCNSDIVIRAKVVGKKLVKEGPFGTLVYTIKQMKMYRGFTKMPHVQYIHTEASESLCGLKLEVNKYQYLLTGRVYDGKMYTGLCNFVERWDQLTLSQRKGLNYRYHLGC', 't'),
  ('v2‐Fc (TIMP3v2 fused with Fc) (Fc fusion, additional glycosylation site (F34N)) CTCSPSHPQDAFCNSDIVIRASVVGKKLVKEGPNGTLVYTIKQMKMYRGFTKMPHVQYIHTEASESLCGLKLEVNKYQYLLTGRVYDGKMYTGLCNFVERWDQLTLSQRKGLNYRYHLGCNCKIKSCYYLPCFVTSKNECLWTDMLSNFGYPGYQSKHYACIRQKGGYCSWYRGWAPPDKSIINATDP', 'f'),
  ('N‐PEG (PEGylated N‐TIMP3) (domain or fragment, PEG, size and site not stated) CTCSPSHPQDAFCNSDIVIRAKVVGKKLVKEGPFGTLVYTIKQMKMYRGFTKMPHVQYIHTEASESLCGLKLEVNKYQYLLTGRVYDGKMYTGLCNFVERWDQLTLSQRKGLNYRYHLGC', 't'),
  ('TIMP3v82 (H55N/Q57T/K71N/E73T/D87N/K89T/R115T) (natural protein, additional glycosylation sites, site‐specific glycosylation confirmed by mass spec analysis (data not shown); endogenous glycosylation site at Asn184) CTCSPSHPQDAFCNSDIVIRAKVVGKKLVKEGPFGTLVYTIKQMKMYRGFTKMPNVTYIHTEASESLCGLNLTVNKYQYLLTGRVYNGTMYTGLCNFVERWDQLTLSQRKGLNYTYHLGCNCKIKSCYYLPCFVTSKNECLWTDMLSNFGYPGYQSKHYACIRQKGGYCSWYRGWAPPDKSIINATDP', 't'),
  ('TIMP3v2 (K22S/F34N TIMP3) (natural protein, additional glycosylation site (F34N), >95% occupancy by mass spectrometry; endogenous glycosylation site at Asn184) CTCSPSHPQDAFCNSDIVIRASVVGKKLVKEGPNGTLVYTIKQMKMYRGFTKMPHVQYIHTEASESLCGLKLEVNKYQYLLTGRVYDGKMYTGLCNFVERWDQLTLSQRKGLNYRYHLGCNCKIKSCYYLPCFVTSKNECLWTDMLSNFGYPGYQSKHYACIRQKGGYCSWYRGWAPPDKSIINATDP', 't');

This collection of values is drawn from paper PMC6234480.
